Test system: A-375
Assay: Antiproliferative activity against human A375 cells assessed as growth inhibition at 8 uM after 72 hrs by CCK-8 assay relative to control
Type: functional
Conditions: A-375, 72 h, read-out: GI
quantity-measured: inhibition of growth at 8 µM (%)
Give just the number in %; leave the unit off.

Solved cases below.
CCc1ccc(SCc2ccc(/C=C/C(=O)Nc3ccccc3N)cc2)cc1	58.4
Cc1cc(C)cc(SCc2ccc(C(=O)Nc3ccccc3N)cc2)c1	74.7
CCc1ccc(SCc2ccc(C(=O)Nc3ccccc3N)cc2)cc1	71.1

q: I am curious: what inhibition of growth at 8 µM value has been reported for Nc1ccccc1NC(=O)c1ccc(CSc2ccc(Br)cc2)cc1 ?
a: 6.17

q: I am curious: what inhibition of growth at 8 µM value has been reported for COc1ccc(SCc2ccc(/C=C/C(=O)Nc3ccccc3N)cc2)cc1OC ?
a: 46.4

q: I am curious: what inhibition of growth at 8 µM value has been reported for Nc1ccccc1NC(=O)c1ccc(CSc2nccc(C(F)(F)F)n2)cc1 ?
a: 80.1

q: I am curious: what inhibition of growth at 8 µM value has been reported for Nc1ccccc1NC(=O)c1ccc(CSCCc2ccccc2)cc1 ?
a: 69.9

q: I am curious: what inhibition of growth at 8 µM value has been reported for Nc1ccccc1NC(=O)/C=C/c1ccc(CSc2ccc(C(F)(F)F)cn2)cc1 ?
a: 3.96

q: I am curious: what inhibition of growth at 8 µM value has been reported for Cc1ccc(SCc2ccc(/C=C/C(=O)Nc3ccccc3N)cc2)cc1 ?
a: 31.2

q: I am curious: what inhibition of growth at 8 µM value has been reported for COc1ccc(SCc2ccc(C(=O)Nc3ccccc3N)cc2)cc1 ?
a: 81.8

q: I am curious: what inhibition of growth at 8 µM value has been reported for CC(=O)Nc1ccc(C(=O)Nc2ccccc2N)cc1 [TACEDINALINE] ?
a: 46.4
